# experiment: Displacement of [3H]flumazenil from GABA(A)-BZD receptor in Sprague-Dawley rat cerebral cortex membranes after 40 mins by liquid scintillation counting
# Type: cell membranes, Membrane
readout-label: Ki (µM)

[[record]]
smiles = "CC(C)=CCc1cc([C@@H]2CC(=O)c3ccc(O)c(CC=C(C)C)c3O2)ccc1O"
quantitative_readout = 1.63


Origin of the recorded values: ChEMBL document CHEMBL2040762
